B1: Cyclin-F, residues 28 to 80; numbered along this chain, P41002 (parent)
chain: RNLTILSLPEDVLFHILKWLSVEDILAVRAVHSQLKDLVDNHASVWACASFQE

variants of: B1; assay: abundance fitness (aPCA) (normalised: wild type 0, dead -1); higher = more abundant; growth selection in yeast, the domain comes from the species named; conditions: Homo sapiens
Readout name: abundance fitness
Numbers only.

W46R ... -0.058

Could you report abundance fitness for every entry in the following list?
1. L26T
2. V39R
3. D37C
4. L38Y
5. S50Q
6. V12P

Response given:
-0.396
-0.793
0.012
-0.151
0.105
-0.733

Could you report abundance fitness for every entry in the following list?
1. V28E
2. I25W

Response given:
1: -0.82; 2: -0.41

Could you report abundance fitness for every entry in the following list?
1. H32R
2. R1M

Response given:
1: -0.787; 2: -0.359
